- ASSAY_TARGET: T1, DLG1 PDZ2 (human, aa 311-407) (human, UniProt Q12959 311-407)
- T1 construct: DLG1, human, PDZ2, aa 311-407 in a modified pRSET vector; also called DLG PDZ2; source: E. coli BL21 Gold (DE3), purified (Ni2+ Sepharose)
- T1 sequence (Q12959 311-407): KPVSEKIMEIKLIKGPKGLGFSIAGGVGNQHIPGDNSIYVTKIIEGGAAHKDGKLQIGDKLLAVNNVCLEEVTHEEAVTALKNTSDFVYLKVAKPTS
- TEST: MST; FITC-labelled peptide fixed at 25-50 nM, PDZ domain titrated (1:1 dilution series); 50 mM Tris-HCl pH 7.4, 0.1% Tween-20; thermophoresis and T-Jump signal; triplicate
- COND: both partners purified
Square brackets hold non-standard residues; d marks the D form. Ends that are not written are not given here. * marks the point of attachment. FITC = O=C1OC2(c3ccc(O)cc3Oc3cc(O)ccc32)c2ccc(NC(=S)*)cc21; pS = N[C@@H](COP(=O)(O)O)C(=O)O
READOUT: Kd (µM)
Answer in µM, number only, no unit symbol.

Below, each entry is followed by its recorded Kd result.
{FITC}-RLT[pS]TRL (C-terminal seven residues of RPS6KA2, human; the methods give pS at this position; also called pRPS6KA2; source: synthetic peptide, bought: GeneCust) [FITC-RLTpSTRL (RPS6KA2 peptide, p-3 phosphorylated)]
72
{FITC}-RLTETRL (C-terminal seven residues of RPS6KA2, human, with S730E; also called Mimetic RPS6KA2; source: synthetic peptide, bought: GeneCust) [FITC-RLTETRL (RPS6KA2 peptide, phosphomimetic at p-3)]
14

Now look at this one.
Record {FITC}-KRSFIESNV (C-terminal nine residues of TANC1, human; source: synthetic peptide, bought: GeneCust) [FITC-KRSFIESNV (TANC1 peptide, unphosphorylated)] . Reported Kd: 2.7
